test.target: CSNK2A1 (human) (UniProt P68400)
Sequence (P68400 whole entry, looked up): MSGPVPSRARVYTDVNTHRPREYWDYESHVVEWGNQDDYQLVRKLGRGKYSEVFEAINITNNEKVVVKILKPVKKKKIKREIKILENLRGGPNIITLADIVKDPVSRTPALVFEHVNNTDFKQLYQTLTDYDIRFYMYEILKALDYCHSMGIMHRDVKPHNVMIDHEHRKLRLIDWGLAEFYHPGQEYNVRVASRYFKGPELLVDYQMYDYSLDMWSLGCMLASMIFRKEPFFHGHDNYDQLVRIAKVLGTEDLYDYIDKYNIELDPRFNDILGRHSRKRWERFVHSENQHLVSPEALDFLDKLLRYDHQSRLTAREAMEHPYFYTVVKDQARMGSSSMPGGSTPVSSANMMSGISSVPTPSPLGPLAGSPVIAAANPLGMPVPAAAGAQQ
method.notes: KINOMEscan competition binding
condition.description: compound 10.0 µM

molecule	kinase still bound, per cent of control [%]
CCc1nc(-c2cccc(C)c2)c(-c2ccnc(NC(=O)c3ccccc3)c2)s1	100
CCN1CCN(Cc2ccc(NC(=O)c3ccc(C)c(/C=C/c4cnc5[nH]ccc5c4OC)c3)cc2C(F)(F)F)CC1	90
CCN(CCO)CCCOc1ccc2c(Nc3cc(CC(=O)Nc4cccc(F)c4)[nH]n3)ncnc2c1	84
CCCS(=O)(=O)Nc1ccc(F)c(C(=O)c2c[nH]c3ncc(Cl)cc23)c1F	18
CC1=C(C(=O)Nc2cc3cn[nH]c3cc2F)C(c2ccc(C(F)(F)F)cc2)CC(=O)N1 (stereo not drawn)	81
COc1ccc(N(C(=O)Oc2cc(C(=O)Nc3cccc(C(F)(F)F)c3)ccc2C)c2ccnc(Nc3ccc(N4CCN(C)CC4)cc3)n2)c(OC)c1	100
COc1cc(N2CCC(C(N)=O)CC2)ccc1Nc1nc(N)c(Cl)c(Nc2ccccc2S(=O)(=O)C(C)C)n1	100
COc1cc(C)c(Sc2cnc(NC(=O)c3ccc(CNC(C)C(C)C)cc3)s2)cc1C(=O)N1CCN(C(C)=O)CC1 (stereo not drawn)	100
CC(=O)c1c(C)c2cnc(Nc3ccc(N4CCNCC4)cn3)nc2n(C2CCCC2)c1=O	0.05
N#Cc1cc(-c2ccnc(Nc3ccc(-n4cnc(-c5cccnc5)n4)cc3)n2)cc(N2CCOCC2)c1	2.2
COc1cc2c(Nc3ccc(NC(=O)c4ccccc4)cc3)ncnc2cc1OCCCN1CCOCC1	87
O=c1[nH]c2ccccc2n1C1CCN(Cc2ccc(-c3nc4cc5[nH]cnc5cc4nc3-c3ccccc3)cc2)CC1	96
CNC(=O)Nc1ccc(-c2nc(N3CC4CCC(C3)O4)c3cnn(C4CCC5(CC4)OCCO5)c3n2)cc1	80
Cc1cn(-c2cc(C(=O)Nc3ccc(C)c(NC(=O)c4ccno4)c3)cc(C(F)(F)F)c2)cn1	100
C=CC(=O)Nc1ccc(C(=O)c2sc(Nc3ccc(N4CCN(C)CC4)cc3OC)nc2N)cc1	14
COc1cc2ncnc(Nc3cccc(Cl)c3)c2cc1OC	19
CCOc1cc(N2CCC(O)CC2)ccc1Nc1ncc2c(n1)N(C)c1ccccc1C(=O)N2C	100
N#C/C(=C1/Nc2ccccc2S1)c1ccnc(NCCc2cccnc2)n1	0.4
